METHOD: Plasma concentration in BALB/c mouse at 2 mg/kg, po
Format: ADME, organism-based
QUANTITY_KIND: AUC (ng·h/mL)
Number only, in ng·h/mL; omit the unit.

Measured AUC, CC1(C)CC[C@H](Nc2ncc(C(F)(F)F)c(-c3c[nH]c4c(P(C)(C)=O)c(C#N)ccc34)n2)CN1 [SY-5609] : 261

----------
Items are presented alongside their recorded Papp A→B.
METHOD: Apparent permeability across apical to basolateral side in MDCK cells
Format: ADME, cell-based, Canis lupus familiaris
MEASUREMENT_PARAMETERS: dog
The response must be a number in ×10⁻⁶ cm/s with no trailing unit.

// `CS(=O)(=O)c1ccc2c(-c3nc(N[C@H]4CCCNC4)ncc3C(F)(F)F)c[nH]c2c1` : Papp A→B value = 0.86

Papp A→B recorded for this compound, `FC(F)(F)c1cnc(N[C@H]2CCCNC2)nc1-c1c[nH]c2ccccc12` , is 11.1

Lab book: Papp A→B of `CCc1cnc(N[C@H]2CCCNC2)nc1-c1c[nH]c2c(S(C)(=O)=O)c(C#N)ccc12` noted as 1.12

Item: `Cc1noc(C)c1-c1ccc2c(-c3nc(N[C@H]4CCCNC4)ncc3C(F)(F)F)c[nH]c2c1` | Papp A→B: 1.63

Measured Papp A→B of `Clc1cnc(N[C@H]2CCCNC2)nc1-c1c[nH]c2ccccc12` : 5.26
